System: GMK cells
TEST SUMMARY: Cytotoxicity observed microscopically in GMK cells (Test Example 2)
Assay type: cell-based, green monkey
CONDITION: 5 µg/ml, in parentheses

| GIVEN SMILES | cytotoxicity |
| --- | --- |
| COc1cc2c(=O)n(N3CCN(c4ccccc4C(F)(F)F)CC3)ncc2c(OC)c1OC | - |
| CC[C@@]12C=C(C(=O)OCCN3CCN(c4ccccc4OC)CC3)n3c4c(c5ccccc53)CCN(CCC1)[C@H]42 | - |
| CC[C@@]12C=C(C(=O)OCCN3CCN(c4ccccc4Cl)CC3)n3c4c(c5ccccc53)CCN(CCC1)[C@H]42 | - |

---

Below is a list of entries, each paired with its recorded MIC value.
Tested on: HIV
TEST SUMMARY: Inhibition of HIV-induced cytopathogenicity in MT-4 cells
Format: cell-based
CONDITION: Human immunodeficiency virus 1; MT-4 cells; minimum inhibitory concentration; read-out: Anti-HIV Activity (MIC, µg/ml)
MEASUREMENT TYPE: MIC (µg/mL)

| COMPOUND | SIGN | RECORDED RESULT |
| --- | --- | --- |
| CCCCCCCC(=O)N1CCN(c2ccccc2C(F)(F)F)CC1 [Compound of Example 16] | > | 63 |
| COc1cc2c(=O)n(N3CCN(c4ccccc4C(F)(F)F)CC3)ncc2c(OC)c1OC [Compound of Example 19] | = | 31 |
| CCCCC/C=C\C/C=C\CCCCCCCC(=O)N1CCN(c2ccccc2Cl)CC1 [Compound of Example 8] | = | 16 |
| CCCCCCCC(=O)N1CCN(c2ccccc2Cl)CC1 [Compound of Example 9, 1-(2-Chlorophenyl)-4-octanoylpiperazine] | > | 125 |

---

System: GMK cells
TEST SUMMARY: Cytotoxicity observed microscopically in GMK cells (Test Example 2)
Format: cell-based, green monkey
Set-up: key: -: no cytotoxicity; ±: slight cytotoxicity; +: cytotoxicity with observable antiviral effect
CONDITION: 10 µg/ml, in parentheses
MEASUREMENT TYPE: cytotoxicity

| COMPOUND | RECORDED RESULT |
| --- | --- |
| CCCCCCCC(=O)N1CCN(c2ccccc2C(F)(F)F)CC1 [Compound of Example 16] | + |
| Cc1cc(O)c2c(=O)c(C)c(-c3ccc(OC(=O)CN4CCN(c5ccccc5C(F)(F)F)CC4)cc3)oc2c1 [Compound of Example 24] | - |
| CC[C@@]12C=C(C(=O)OCCN3CCN(c4ccccc4OC)CC3)n3c4c(c5ccccc53)CCN(CCC1)[C@H]42 [Compound of Example 27] | ± |
| CC[C@@]12C=C(C(=O)OCCN3CCN(c4ccccc4Cl)CC3)n3c4c(c5ccccc53)CCN(CCC1)[C@H]42 [Compound of Example 28] | + |
| O=c1[nH]c(N2CCN(c3ccccc3C(F)(F)F)CC2)nc2nc[nH]c12 [Compound of Example 20] | ± |

---

System: GMK cells
TEST SUMMARY: Cytotoxicity observed microscopically in GMK cells (Test Example 2)
Assay type: cell-based, green monkey
CONDITION: 5 µg/ml, in parentheses

| GIVEN SMILES | cytotoxicity |
| --- | --- |
| CC[C@@]12C=C(C(=O)NCCN3CCN(c4ccccc4Cl)CC3)n3c4c(c5ccccc53)CCN(CCC1)[C@H]42 | - |
| CCCCCCCC(=O)N1CCN(c2ccccc2C(F)(F)F)CC1 | - |
| CC[C@@]12C=C(C(=O)NCCN3CCN(c4ccccc4OC)CC3)n3c4c(c5ccccc53)CCN(CCC1)[C@H]42 | - |
| CCn1cc(C(=O)O)c(=O)c2cc(F)c(N3CCN(c4ccccc4C(F)(F)F)CC3)cc21 | ± |
| O=c1[nH]c(N2CCN(c3ccccc3C(F)(F)F)CC2)nc2nc[nH]c12 | - |
